All figures here come from PubChem BioAssay AID2685.

METHOD_SUMMARY: qHTS Assay for Lipid Storage Modulators in Drosophila S3 Cells;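 note: cells counted by Cell Tracker Red CMTPX staining in the red channel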
TEST_CONTEXT: BODIPY lipid droplet fluorescence, 18-24 h, cells fed with added oleic acid; measured here: cell count max response
Source text: NIH Molecular Libraries Probe Production Centers Network [MLPCN] NIH Chemical Genomics Center [NCGC] […] Triacsin C (Sigma-Aldrich T-4540), an inhibitor of long-chain fatty acyl CoA synthetase that blocks synthesis of triglycerides, was used as a positive control for lipid under-storage. […] Fluorescence was detected by excitation of the fluorophores with a 488-nm laser on an Acumen Explorer (TTP Lab Tech). […] Cells were detected using channel 3 (575-640 nm) with 5-um width and 100-um depth filters. […]
The campaign covered roughly 320,000 compounds. About 2,100 (0.66%) were called active. Another 53% or so got no clear call; they are omitted. The entries come from a sample that favours actives as a whole.
REPORTED_METRIC: cell number change
The reply should read as a number followed by its unit.

These recorded examples may help you get a feel for the data.
[[record]]
compound = "CCOC(=O)/C(N=O)=C(\\O)C1CCN(C(=O)OCC)CC1"
reported_metric = "cell number change"
result = "1.9%"

[[record]]
compound = "CCC(=O)NC(C)c1cc(Cl)c2ccccc2c1O (configuration not stated)"
reported_metric = "cell number change"
result = "-12.2%"

[[record]]
compound = "CC(CN1CCCC(C(N)=O)C1)c1ccccc1 (configuration not stated)"
reported_metric = "cell number change"
result = "-8.59%"

[[record]]
compound = "Cc1ccc(N(Cc2cc3cc(C)ccc3[nH]c2=O)S(=O)(=O)c2ccccc2)cc1"
reported_metric = "cell number change"
result = "-3.48%"


For each of the items listed, what is its cell number change?
1. CN1CCCC(C(=O)C(C#N)c2ccccc2)C1 (configuration not stated)
2. CC(=O)C1=C(O)C(=O)N(Cc2ccccc2)C1c1ccc(F)cc1 (configuration not stated)

OUT:
-21.6%
-7.48%

----------
Hi there, I'd appreciate the recorded cell number change for every entry that follows.
METHOD_SUMMARY: qHTS Assay for Lipid Storage Modulators in Drosophila S3 Cells;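 note: cells counted by Cell Tracker Red CMTPX staining in the red channel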
TEST_CONTEXT: BODIPY lipid droplet fluorescence, 18-24 h, cells fed with added oleic acid; measured here: cell count max response
Screen size: about 320,000 compounds; about 2,100 (0.66%) were called active. Not shown: some 53% with an inconclusive outcome. Many of the other results were omitted from the sample, so actives are more common in it than they were.
One number for each entry, in %.

[[record]]
compound = "Cc1c(NC(=O)CSc2ccccc2C(=O)Nc2cccnc2)c(=O)n(-c2ccccc2)n1C"
u = "%"
result_number = 13.8

[[record]]
compound = "CCOC(=O)C(NC(=O)N1CCCCC1)(c1ccccc1)C(F)(F)F (stereo not given)"
u = "%"
result_number = -0.413

[[record]]
compound = "O=C(Nc1ccccc1)OC(CN1CCCCC1)C(F)(F)F (stereo not given)"
u = "%"
result_number = -2.34


For each of the items listed, what is its cell number change?
1. Cc1cc(C)c(S(=O)(=O)N2CCN(C(=O)N(C)C)CC2)c(C)c1
2. O=C(CCC(=O)N1CCOc2ccccc21)Nc1cc(F)ccc1F
3. O=c1cc(CN2CCOCC2)c2cc(Cl)c(O)cc2o1

OUT:
[-11, -2.02, -11.3]
